EXPERIMENT SUMMARY: chemical genetic growth profiling, strain panel (AID 1159580);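 also: tested at 20 µM; growth read once vehicle control cultures reached saturation at 30 °C; 1 = growth at the plate median or of vehicle wells; lower values mean less growth of the strain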
MEASUREMENT CONTEXT: S. cerevisiae deletion strains, growth OD, locus YML016C, strain PPZ1, hits give low values
The campaign covered roughly 5,500 compounds. About 2,000 (36%) were called active. Another 18% or so got no clear call; they are omitted. This is one part of the list.

MOLECULE: CN=C(N)NCCCC(N)C(=O)O (stereo not drawn)
normalized growth: 1.02
--
MOLECULE: COc1ccc2oc(-c3ccccc3)c(OC)c(=O)c2c1
normalized growth: 0.919
--
MOLECULE: CNc1ccc(C(=O)CC(O)CCC(C)C2OC(=O)CC(O)CC(=O)CC(O)CC(O)CC(O)CC(O)CC3(O)CC(O)C(C(=O)OC)C(CC(OC4OC(C)C(O)C(N)C4O)/C=C/C=C/C=C/C=C/C=C/C=C/C=C/C2C)O3)cc1 (stereo not drawn)
normalized growth: 0.136
--
MOLECULE: CC12CCC3C(=CCc4cc(O)ccc43)C1CCC2=O (stereo not drawn)
normalized growth: 0.973
--
MOLECULE: CN[C@@H]1C(OC2[C@H](O[C@H]3[C@H](O)[C@@H](O)[C@H](N=C(N)N)[C@@H](O)[C@@H]3N=C(N)N)OC(C)[C@]2(O)CO)OC(CO)C(O)C1O (stereo partly drawn)
normalized growth: 0.993
--
MOLECULE: C[C@]12CCC3c4ccc(OC(=O)CCC(=O)O)cc4CCC3C1CCC2=O (stereo partly drawn)
normalized growth: 0.985
--
MOLECULE: COc1ccc2c(=O)c(OC)c(-c3ccccc3)oc2c1
normalized growth: 0.947
--
MOLECULE: CCC(=O)OC1[C@@H]2CC3=C4CC(=O)O[C@@H](c5ccoc5)[C@]4(C)CCC3[C@@](C)(C2=O)[C@@H](CC(=O)OC)C1(C)C (stereo partly drawn)
normalized growth: 1

###

EXPERIMENT SUMMARY: chemical genetic growth profiling, strain panel (AID 1159580);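 also: tested at 20 µM; growth read once vehicle control cultures reached saturation at 30 °C; 1 = growth at the plate median or of vehicle wells; lower values mean less growth of the strain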
MEASUREMENT CONTEXT: S. cerevisiae deletion strains, growth OD, locus YLR133W, strain CKI1
In all, about 5,500 compounds went through this assay and about 2,000 (36%) were called active. Roughly 18% stayed inconclusive and do not appear here. No stated cut-off is given here; in the data, active means normalized growth mostly below about 0.91 (no sharp cut-off); inconclusive means no clear call, values can overlap the other calls; inactive means mostly above about 0.92. The list shows a part of the results.
Outcome codes: active, inactive

COMPOUND: O=C(NNc1ccccc1)c1cc(-c2ccc(Cl)cc2)oc1C(F)(F)F
GROUP: active
//
COMPOUND: O=C(Nc1ccncc1)c1cc(-c2ccccc2)oc1C(F)(F)F
GROUP: inactive
//
COMPOUND: CC(C)(C)C1=C(C#N)C(c2c(Cl)cccc2Cl)C(C#N)=C(N)O1 (stereo unspecified)
GROUP: inactive
//
COMPOUND: COc1ccc2c(c1)CCc1sc(NC(=O)c3ccco3)nc1-2
GROUP: inactive
//
COMPOUND: O=C(Nc1cc(Cl)ccc1O)c1ccccc1CSc1ccc(Cl)cc1
GROUP: inactive
//
COMPOUND: N#Cc1ccc(Oc2sccc2[N+](=O)[O-])cc1
GROUP: inactive
//
COMPOUND: O=C(Oc1ccc2ccccc2c1C1SCCS1)c1ccc([N+](=O)[O-])o1
GROUP: inactive
//
COMPOUND: CC1CCC(C(C)C)C(N(Cc2ccccc2)C(=O)c2ccccc2)C1 (stereo unspecified)
GROUP: inactive
//
COMPOUND: CNC(=O)Sc1c(-c2ccc(Cl)cc2)nn(C(=O)NC)c1SC
GROUP: active
//
COMPOUND: Cc1ccc(NC(=S)C(C#N)C(=O)N2CCOCC2)c(C)c1 (stereo unspecified)
GROUP: inactive
//
COMPOUND: Cc1ccccc1/C=C/c1c[nH]c2ccccc12
GROUP: inactive

###

EXPERIMENT SUMMARY: chemical genetic growth profiling, strain panel (AID 1159580);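 also: tested at 20 µM; growth read once vehicle control cultures reached saturation at 30 °C; 1 = growth at the plate median or of vehicle wells; lower values mean less growth of the strain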
MEASUREMENT CONTEXT: S. cerevisiae deletion strains, growth OD, locus YFR010W, strain ubp6
Hit rate of the full screen: of about 5,500 compounds, about 2,000 (36%) were called active. Roughly 18% stayed inconclusive and do not appear here. Cut-off read from the data, not from the text of the source: active = normalized growth mostly below about 0.91 (no sharp cut-off); inconclusive = no clear call, values can overlap the other calls; inactive = mostly above about 0.92. The list shows a part of the results. Where a SMILES comes first, the peptide text is derived from it.
Outcome codes: yes = active, no = inactive

COMPOUND: COc1ccc(-c2oc3cc(OC)c(OC)c(OC)c3c(=O)c2OC)cc1OC
GROUP: no

COMPOUND: CCCCCCCCCCCCCC(=O)OC1C(C)C2(O)C(C=C(CO)CC3(O)C(=O)C(C)=CC32)C2C(C)(C)C12OC(C)=O (centres undefined)
GROUP: no

COMPOUND: NC1(C(=O)O)CC1
GROUP: no

COMPOUND: COc1ccc2c(c1)OCC(Cc1ccc(OC)c(OC)c1)C2=O (centres undefined)
GROUP: no

COMPOUND: COc1ccc(CCC(=O)c2c(O)cc(O[C@@H]3O[C@H](CO)C(O)[C@H](O)C3O[C@@H]3O[C@@H](C)[C@H](O)[C@@H](O)[C@H]3O)cc2O)cc1O (some centres undefined)
GROUP: no

COMPOUND: CC(O)(P(=O)(O)O)P(=O)(O)O
GROUP: no

COMPOUND: NC(=O)CS(=O)C(c1ccccc1)c1ccccc1 (centres undefined)
GROUP: no

COMPOUND: COP(=S)(OC)Oc1ccc(Sc2ccc(OP(=S)(OC)OC)cc2)cc1
GROUP: no

COMPOUND: C=C[C@@]1(C)CC(=O)[C@@]2(O)[C@](C)(O1)[C@@H](OC(C)=O)[C@@H](O)C1C(C)(C)CC[C@H](O)[C@@]12C (some centres undefined)
GROUP: no

COMPOUND: C[C@@H]1CC2C3CCC4=CC(=O)C=C[C@]4(C)[C@@]3(F)[C@@H](O)C[C@]2(C)[C@@]1(O)C(=O)CO (some centres undefined)
GROUP: no

COMPOUND: CCCNC(=O)NS(=O)(=O)c1ccc(Cl)cc1
GROUP: no

COMPOUND: COc1ccnc(CS(=O)c2nc3ccc(OC(F)F)cc3[nH]2)c1OC (centres undefined)
GROUP: no

COMPOUND: NC(N)=NCCN1CCCCCCC1
GROUP: no

COMPOUND: COc1cc2c(cc1OC)C1(O)C(=O)c3ccc(O)c(C(=O)O)c3OC1CO2 (centres undefined)
GROUP: no

COMPOUND: O=C(O)C1CCCNC1 (centres undefined)
GROUP: no

COMPOUND: COc1ccc2c(c1)OCC(Cc1ccc(O)c(OC)c1)C2=O (centres undefined)
GROUP: no

COMPOUND: Cc1cccc(C)c1NC(=O)C1CCCCN1C (centres undefined)
GROUP: no

COMPOUND: CC(=O)N[C@@H](CC(=O)O)C(=O)N[C@@H](CCC(=O)O)C(=O)O (Ac-Asp-Glu-OH)
GROUP: no

COMPOUND: CCC(=O)OC1[C@@H]2CC3=C4CC(=O)O[C@@H](c5ccoc5)[C@]4(C)CCC3[C@@](C)(C2=O)[C@@H](CC(=O)OC)C1(C)C (some centres undefined)
GROUP: no

COMPOUND: NC1(C(=O)O)CCCC1
GROUP: no

COMPOUND: COC(=O)[C@H](c1ccccc1Cl)N1CCc2sccc2C1
GROUP: no

COMPOUND: CN1CCC[C@@H]1CCO[C@](C)(c1ccccc1)c1ccc(Cl)cc1
GROUP: yes

COMPOUND: Cc1ccc(C(=O)c2ccc(CC(=O)O)n2C)cc1
GROUP: no

COMPOUND: CCN1C[C@@]2(COC)C3[C@@H](OC)[C@H]4[C@@H]1[C@]3(C(OC)C[C@H]2O)C1C[C@@]2(O)[C@H](OC(=O)c3ccccc3)C1[C@]4(OC(C)=O)[C@@H](O)[C@@H]2OC (some centres undefined)
GROUP: no

COMPOUND: COc1ccc2c(c1)OCC(Cc1ccc(OC)c(OC(C)=O)c1)C2=O (centres undefined)
GROUP: no

COMPOUND: CC1[C@H](C)OC(=O)CC(O)CC(O)CC(O)CCC(O)C(O)C[C@]2(O)CC(O)C(C(=O)O)C(CC(OC3O[C@H](C)[C@@H](O)[C@H](N)[C@@H]3O)/C=C/C=C/C=C/C=C/CC/C=C/C=C/[C@H](C)[C@H]1O)O2 (some centres undefined)
GROUP: yes

COMPOUND: O=c1oc2ccccc2cc1O
GROUP: no

COMPOUND: C=CCS(=O)C[C@H](N)C(=O)O (some centres undefined)
GROUP: no

COMPOUND: O=c1[nH]c(=O)n(C2C[C@H](O)[C@@H](CO)O2)cc1C(F)(F)F (some centres undefined)
GROUP: no

COMPOUND: Cc1onc(-c2ccccc2)c1-c1ccc(S(N)(=O)=O)cc1
GROUP: no

COMPOUND: CC(=O)C1CC[C@H]2C3CC[C@H]4C[C@H](O)CC[C@]4(C)C3CC[C@]12C (some centres undefined)
GROUP: no

COMPOUND: CC1OC(O[C@H]2/C=C/C=C/C=C/C=C/C=C/C=C/C=C/[C@H](C)[C@@H](O)[C@@H](C)[C@H](C)OC(=O)CC(O)CC(O)CCC(O)C(O)CC(O)C[C@]3(O)C[C@H](O)C(C(=O)O)C(C2)O3)C(O)[C@H](N)C1O (some centres undefined)
GROUP: yes

COMPOUND: CC1C/C=C/C=C/C=C/C=C/C(O[C@@H]2O[C@H](C)[C@@H](O)[C@H](N)[C@@H]2O)CC2OC(O)(CC(O)CC3OC3/C=C/C(=O)O1)CC(O)C2C(=O)O (some centres undefined)
GROUP: no

COMPOUND: COc1ccc(-c2oc3cc(OC)c(OC)c(OC)c3c(=O)c2OC)cc1
GROUP: no

COMPOUND: COc1c(C)c2c(c(O)c1C/C=C(\C)CCC(=O)O)C(=O)OC2
GROUP: yes

COMPOUND: COc1cc(C)c2c(=O)cc(-c3ccccc3)oc2c1
GROUP: no

COMPOUND: CC(=O)C1CCC2C3CCC4C[C@H](O)CCC4(C)C3C[C@H](O)C12C (some centres undefined)
GROUP: no

COMPOUND: CC12CCCCC1(Br)[N+](=O)N2[O-] (centres undefined)
GROUP: no

COMPOUND: COc1ccc2nc(S(=O)Cc3ncc(C)c(OC)c3C)[nH]c2c1 (centres undefined)
GROUP: no

The values you see were collected from PubChem BioAssay AID1159580.
